# Measurement Target: T1, UNK ZnF1-3 (human, UniProt Q9C0B0 31-174)
# T1 sequence: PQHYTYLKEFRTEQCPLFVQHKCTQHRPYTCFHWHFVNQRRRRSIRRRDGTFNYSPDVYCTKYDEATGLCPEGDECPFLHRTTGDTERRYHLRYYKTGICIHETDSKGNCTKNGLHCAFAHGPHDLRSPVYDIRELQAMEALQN
# Assay Notes: nsRBNS (natural sequence RNA bind-n-seq); RBNS binding buffer (assumed for nsRBNS): 25 mM Tris pH 7.5, 150 mM KCl, 3 mM MgCl2, 0.01% Triton X-100, 500 ug/ml BSA, 20 U/ml SUPERase-In, 4 C; UNK is unkempt and MSI1 is Musashi-1; names of the RNAs are library labels; protein concentration not given here; high values mean tight binding
Whole data set: some 24,000 sequences, median “enrichment r” near 0.99, cut for the highest 2% near 3.7. This excerpt belongs to a sample that is enriched for the highest values.
Please map values of binding signal to classes as shown: bottom range: < 1 enrichment R; center range: ≥ 1 enrichment R and < 2 enrichment R; top range: ≥ 2 enrichment R

Recorded results for 3 binders are shown here.
{"Binder": "chr7:149838072:149838073:-_ENSMUSG00000048583_ENSMUST00000000033|mus_hu|motif|central (ssRNA) RNA: GGGAGUUCUACAGUCCGACGAUCUCACUGCCCCCCUGUUACAUGGGGGGGGGGUUUAAUUUGGUUUCUGAGCGCAUAAAGCGGAGGAGGGGUAAAAAAAAAACAAAAAAAAAAAAAAAAGGAAAAAUGCCCCAAGAAACAAAGCAACAGAGGAUUGAGCAUCA", "Class": "top range"}
{"Binder": "chr7:7676484:7676485:-_ENSG00000106399_ENST00000223129|hu_mus|FALSE|FALSE (ssRNA) RNA: GGGAGUUCUACAGUCCGACGAUCAAGUAUCACUUUUAAAAAAAGUUUAUAAAAAGGCUUAGUUGUAAACUGUCAUAAUAGAUUUACAAAAAAAUAUAUAUAUAUAAAAGAACAAAUUAAAUAUUAGAAAUUAUAGGAGUCGCUCAACAGAGGAUUGAGCAUCA", "Class": "top range"}
{"Binder": "chr14:53325254:53325255:-_ENSG00000073712_ENST00000341590|hu_hu|FALSE|FALSE (ssRNA) RNA: GGGAGUUCUACAGUCCGACGAUCAACCACUUUGCAAUCUACUUCAGUACAAAUGAAGGACAAUCGUACUUCAUCUGCAAACUCUACGGUGACCAUUUUGAUUUCCCAGUUGACAUUCCACUGUUUCAUGUUGCUGAAACGCCACAACAGAGGAUUGAGCAUCA", "Class": "bottom range"}

Category of chr10:28872372:28872373:+_ENSG00000095787_ENST00000354911|hu_mus|FALSE|FALSE (ssRNA) RNA: GGGAGUUCUACAGUCCGACGAUCUGCAUCUGAAGUUUUGCUUGGAUUAUUGCUUGGAUUAGAAGAAUGUGAAUUUGAACUAUGAAGUGCACUGUGGUUGUGUGAGUUUUCUUGUGGAGAGUAACUGGUCCCACCGUCCCUUUCCAACAGAGGAUUGAGCAUCA : center range

Next up: chr19:16212804:16212805:+_ENSG00000167460_ENST00000300933|hu_mus|hu_hu_hu_mus_False|18_68 (ssRNA) RNA: GGGAGUUCUACAGUCCGACGAUCAACAAUUCUGGAGUGAAGGAAAGAUGUAACAUGGAACAGCAUUCCAUCUAUUACAGAAGGCACAUGGGCAACAAUGAUCACCCCAGCAUUCUCCUACGUUGACCUUAAAGACAAUCUGUUCAACAGAGGAUUGAGCAUCA bottom range

Please answer likewise for chr4:115894766:115894767:+_ENSMUSG00000028698_ENSMUST00000030464|mus_hu|mus_mus_mus_hu_True|38_38 (ssRNA) RNA: GGGAGUUCUACAGUCCGACGAUCUUCCACACGGAAAUGUACUUCGGGUUUUCCAACGGCCAGUACCAGUCCGGCCAAACUACCCGAACAGGGUCCUGUCCUCCUCUCCUACAGAACACAACAAAAUGCCCCCGAACUUUCAAGCAACAGAGGAUUGAGCAUCA bottom range

Continue with chr9:14812383:14812384:-_ENSMUSG00000031934_ENSMUST00000164273|mus_mus|mus_mus_mus_hu_True|28_108 (ssRNA) RNA: GGGAGUUCUACAGUCCGACGAUCAUAGCUCAAGUAGAUACACGCUAACAGUAUAAUGAUGAGUGUCAGCAGGCGGCAGCUAAUGUACUUGAUGAUUAAAUUAUUAGAGUUCUUUUUUGUCUUCAAGUACUGCUCCACAAUUGGCAACAGAGGAUUGAGCAUCA center range

And chr10:70021928:70021929:-_ENSMUSG00000037747_ENSMUST00000162251|mus_mus|motif|central (ssRNA) RNA: GGGAGUUCUACAGUCCGACGAUCAUGCAUGCUUCAGUGGGGACAUCUGAUGGCAGAUGGACAACAGAGGGUAAUGCUCCGGUGGGAAGACAGGGUGUGUGGGGCGGGGAAGGGGCGAAAGUGGUGUUAGCGUCCGACACUGAUCAACAGAGGAUUGAGCAUCA ? center range
